System: FaDu
assay remarks: mitochondrial oxygen consumption rate normalised to cell number, Z score over the library; higher = higher oxygen consumption (negative = OCR reduction)
experimental conditions: treatment time 24 h; assay medium: 5 mM galactose, 5 mM pyruvate, 4 mM glutamine; 10 µM
The full ranking holds about 1,600 compounds; the median of “mitochondrial oxygen consumption rate normalised to cell number, Z score over the library” is about 0.065, and the lowest 2% start at about -2.2. The full list was thinned out, with the lowest values kept by preference.
Classify on mitochondrial oxygen consumption rate normalised using low (below -0.2), moderate (-0.2 to below 0.7), high (0.7 or more)

| molecule | assigned category |
| --- | --- |
| C[C@H]1C[C@H]2[C@@H]3CCC4=CC(=O)C=C[C@]4(C)[C@@]3(F)[C@@H](O)C[C@]2(C)[C@@]1(O)C(=O)COP(=O)(O)O | low |
| CN1CCCN=C1/C=C/c1cccc(O)c1 | moderate |
| CCCCC(CC)CCC(CC(C)C)OS(=O)(=O)O (stereo not given) | high |
| O=C1c2ccccc2C(=O)C1c1ccc(Cl)cc1 | moderate |
| O=C1c2c(O)cc(CO)cc2C(OC2OC(CO)C(O)C(O)C2O)c2cccc(OC3OC(CO)C(O)C(O)C3O)c21 (stereo not given) [CASANTHRANOL [cascaroside A shown]] | low |
| O.O.O=C([O-])CN(CCN(CC(=O)[O-])CC(=O)O)CC(=O)O.[Na+].[Na+] | high |
| Nc1ccn([C@@H]2O[C@H](CO)[C@@H](O)[C@@H]2O)c(=O)n1 | high |
| O=C(Nc1ccccc1)c1ccccc1O | low |
| S=C=Nc1ccc(N=C=S)cc1 | high |
| CC(=O)Oc1cc(C(C)C)c(OCCN(C)C)cc1C | low |

---

Test system: FaDu
assay remarks: mitochondrial oxygen consumption rate normalised to cell number, Z score over the library; higher = higher oxygen consumption (negative = OCR reduction)
experimental conditions: treatment time 24 h; assay medium: 5 mM galactose, 5 mM pyruvate, 4 mM glutamine; 10 µM
Whole data set: some 1,600 compounds, median “mitochondrial oxygen consumption rate normalised to cell number, Z score over the library” near 0.065, cut for the lowest 2% near -2.2. The full list was thinned out, with the lowest values kept by preference.
reported property: mitochondrial oxygen consumption rate normalised

| compound | observed value |
| --- | --- |
| O=C(NCc1ccccc1)OCCO | 1.42 |
| Cc1cc(=O)oc2cc(O)ccc12 | 0.758 |
| OCc1ccccc1O[C@@H]1O[C@H](CO)[C@@H](O)[C@H](O)[C@H]1O | 0.956 |
| CO[C@H](C(=O)[C@@H](O)[C@@H](C)O)[C@@H]1Cc2cc3cc(O[C@H]4C[C@@H](O[C@@H]5C[C@@H](O)[C@H](O)[C@@H](C)O5)[C@H](O)[C@@H](C)O4)c(C)c(O)c3c(O)c2C(=O)[C@H]1O[C@H]1C[C@@H](O[C@@H]2C[C@@H](O)[C@@H](O[C@@H]3C[C@](C)(O)[C@H](O)[C@@H](C)O3)[C@@H](C)O2)[C@H](O)[C@@H](C)O1 | -3.77 |
| C#C[C@]1(OC(C)=O)CC[C@H]2[C@@H]3CCC4=CC(=NO)CC[C@@H]4[C@H]3CC[C@@]21CC (mixture of isomers) | 1.1 |
| CCN(CC)C(=O)N1CCN(C)CC1 | 1.02 |
| CCC(=O)O[C@H](CC(=O)O)C[N+](C)(C)C | -0.676 |
| CCCCOc1ccc(OCCCN2CCOCC2)cc1 | -0.434 |
| Cc1c(-c2cnccn2)ssc1=S | -0.416 |
| CCN(CC)CCOC(=O)C(Cc1cccc2ccccc12)CC1CCCO1 (centres undefined) | -0.531 |
| COCCCOc1cc(C[C@@H](C[C@H](N)[C@@H](O)C[C@H](C(=O)NCC(C)(C)C(N)=O)C(C)C)C(C)C)ccc1OC | 0.624 |
| CCN(CC)CCNC(=O)c1c(C)[nH]c(/C=C2\C(=O)Nc3ccc(F)cc32)c1C [Sunitinib Malate] | -0.335 |
| Cn1c(=O)c2[nH]c(Br)nc2n(C)c1=O | 0.142 |
| CC(=O)OCC(=O)[C@@]12OC(C)(C)O[C@@H]1C[C@H]1[C@@H]3C[C@H](F)C4=CC(=O)C=C[C@]4(C)[C@@]3(F)[C@@H](O)C[C@@]12C | 0.605 |
| CCCSc1ccc2[nH]c(NC(=O)OC)nc2c1 | 0.883 |
| COC(=O)C(N)CS (centres undefined) | 0.244 |
| CC1CCN(CCCC(=O)c2ccc(F)cc2)CC1 | -0.602 |
| CO[C@@]12[C@H](COC(N)=O)C3=C(C(=O)C(C)=C(N)C3=O)N1C[C@@H]1N[C@@H]12 | -2.77 |
| C[C@@H]1O[C@@H]1P(=O)(O)O | 0.794 |

---

Test system: FaDu
assay remarks: mitochondrial oxygen consumption rate normalised to cell number, Z score over the library; higher = higher oxygen consumption (negative = OCR reduction)
experimental conditions: treatment time 24 h; assay medium: 5 mM galactose, 5 mM pyruvate, 4 mM glutamine; 10 µM
In all, about 1,600 compounds were measured (“mitochondrial oxygen consumption rate normalised to cell number, Z score over the library”: median about 0.065, lowest 2% from about -2.2 on). Shown is part of a subset that was picked to be rich in the lowest values.
Measured mitochondrial oxygen consumption rate normalised of individual entries
reported property: mitochondrial oxygen consumption rate normalised

| molecule | observed value |
| --- | --- |
| CC(NCCc1ccc(O)cc1)C(O)c1ccc(O)cc1 (stereo not given) | -0.342 |
| CN1C(C(=O)Nc2ccccn2)=C(O)c2sc(Cl)cc2S1(=O)=O | -0.183 |
| COc1cc2/c(=N/c3ccc(Br)cc3F)nc[nH]c2cc1OCC1CCN(C)CC1 | 0.909 |
| CC(=O)CC(c1ccc([N+](=O)[O-])cc1)c1c(O)c2ccccc2oc1=O (stereo not given) | 0.325 |
| Cc1cc(-c2ccc(/N=N/c3ccc4c(S(=O)(=O)O)cc(S(=O)(=O)O)c(N)c4c3O)c(C)c2)ccc1/N=N/c1ccc2c(S(=O)(=O)O)cc(S(=O)(=O)O)c(N)c2c1O | 1.24 |
| CCCNC(C)C(=O)Nc1ccccc1C (stereo not given) | -0.507 |
| CC(COc1ccccc1)NC(C)C(O)c1ccc(O)cc1 (stereo not given) | 0.554 |
| Nc1nc2[nH]cnc2c(=S)[nH]1 [Thioguanine] | 0.0465 |
| CNC(=O)c1cc(Oc2ccc(NC(=O)Nc3ccc(Cl)c(C(F)(F)F)c3)cc2)ccn1 | -2.31 |
| Nc1nc2[nH]cnc2c(=S)[nH]1 | -2.58 |

---

Each record here notes measured mitochondrial oxygen consumption rate normalised.
Test system: FaDu
assay remarks: mitochondrial oxygen consumption rate normalised to cell number, Z score over the library; higher = higher oxygen consumption (negative = OCR reduction)
experimental conditions: treatment time 24 h; assay medium: 5 mM galactose, 5 mM pyruvate, 4 mM glutamine; 10 µM
In all, about 1,600 compounds were measured (“mitochondrial oxygen consumption rate normalised to cell number, Z score over the library”: median about 0.065, lowest 2% from about -2.2 on). Many of the other results were omitted from the sample, so the lowest values are more common in it than they were.
reported property: mitochondrial oxygen consumption rate normalised

| compound | observed value |
| --- | --- |
| OC[C@H]1O[C@@H](O[C@@H]2[C@@H](CO)OC(O)(CO)[C@H]2O)[C@H](O)[C@@H](O)[C@H]1O (mixture of isomers) | 1.09 |
| CC1(O)CCC(C(C)(C)O)CC1 (centres undefined) | 0.228 |
| CS(=O)(=O)CCNCc1ccc(-c2ccc3ncnc(Nc4ccc(OCc5cccc(F)c5)c(Cl)c4)c3c2)o1 [Lapatinib Ditosylate] | -0.0282 |
| O=C(O)c1cc(O)c2c(c1)[C@H]([C@H]1c3cc(C(=O)O)cc(O)c3C(=O)c3c(O[C@@H]4O[C@H](CO)[C@@H](O)[C@H](O)[C@H]4O)cccc31)c1cccc(O[C@@H]3O[C@H](CO)[C@@H](O)[C@H](O)[C@H]3O)c1C2=O | 0.905 |
| CCCCCCc1ccc(O)cc1O | 0.48 |
| CC(C)(C)NC[C@H](O)c1ccc(O)c(CO)c1 | 0.0168 |
| NCC(O)CC(=O)O (centres undefined) | -0.332 |
| CCCCCCc1ccc(O)cc1O.Nc1c2ccccc2nc2ccccc12 | -2.93 |
| O=C1/C(=C/c2cccs2)CCC/C1=C\c1cccs1 | 0.0645 |

---

mitochondrial oxygen consumption rate normalised by entry:
Test system: FaDu
assay remarks: mitochondrial oxygen consumption rate normalised to cell number, Z score over the library; higher = higher oxygen consumption (negative = OCR reduction)
experimental conditions: treatment time 24 h; assay medium: 5 mM galactose, 5 mM pyruvate, 4 mM glutamine; 10 µM
The full ranking holds about 1,600 compounds; the median of “mitochondrial oxygen consumption rate normalised to cell number, Z score over the library” is about 0.065, and the lowest 2% start at about -2.2. Shown is part of a subset that was picked to be rich in the lowest values.
reported property: mitochondrial oxygen consumption rate normalised

| molecule | observed value |
| --- | --- |
| CCN(CC)C(=O)c1cccnc1 | -0.362 |
| Clc1ccc(COC(Cn2ccnc2)c2ccc(Cl)cc2Cl)c(Cl)c1 (centres undefined) | -0.399 |
| CC[C@H]1OC(=O)[C@H](C)C(=O)[C@H](C)[C@@H](O[C@@H]2O[C@H](C)C[C@H](N(C)C)[C@H]2O)[C@](C)(OC)C[C@@H](C)C(=O)[C@H](C)[C@H]2N(CCCCn3cnc(-c4cccnc4)c3)C(=O)O[C@]12C | -0.0307 |
| C=CCOC(Cn1ccnc1)c1ccc(Cl)cc1Cl (centres undefined) | -0.834 |
